Source listed as patent US20160251436A1.

- tested_system: T1, PD-1-HIS (human, UniProt Q15116)
- T1 construct: soluble extracellular domain; May be the same protein as m2; also called PD-1-HIS(tag); PD-1-His Tag (Sino Biological #10377-H08H-50)
- T1 sequence (Q15116 25-167 limits assumed): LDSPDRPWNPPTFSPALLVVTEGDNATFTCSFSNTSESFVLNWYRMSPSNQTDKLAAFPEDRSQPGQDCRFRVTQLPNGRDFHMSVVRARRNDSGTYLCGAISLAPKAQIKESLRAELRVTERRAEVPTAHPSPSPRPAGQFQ
- assay_method_text: ELISA, supernatant of transfected HEK293 cells on PD-1-HIS(tag), OD 450 nm, average of two experiments
measurement_name: binding result

binder | measured
100244_C7VH10_100245_C8VK5m1 (antibody, V domains shown, Mouse variable regions; cloned into pFUSE-CHIg-mG1 (murine IgG1 Fc), expressed in HEK293; also called 244C7m1) VH: EVQLQESGPELVRPGASVKMSCKASGYTFTSYWMHWVKQRPGQGLEWIGMIDPSNSETSLNQKFKDKATLNVDKSSKTAYMQLSSLTSEDSAVYYCARSRGNYAYDMDYWGQGTSVTVSS VL: DIVLTQTPAIMSASPGEKVTLTCSASSSVSSNYLYWYQQRPGSSPKLWIYSTSNLASGVPARFSGSGSGTSYSLTISSMEAEDAASYFCHQWSSYPPTFGSGTKLEIK | binds
100413_H1VH3_100414_H1VK6 (antibody, V domains shown, Mouse variable regions; cloned into pFUSE-CHIg-mG1 (murine IgG1 Fc), expressed in HEK293) VH: EVQLQESGPSLVQPSQSLSITCTVSGFSLTNYGVHWVRQSPGKGLEWLGVIWRGGNTDYNAAFMSRLSITKDNSKSQVFFKFHSLQTDDTAIYYCAASMIGGYWGQGTTLTVSS VL: DIVLTQSPLSLPVSLGDQASISCRSSQSIVHSDGNTYLEWYLQKPGQSPKLLIYKVSNRFSGVPDRFSGSGSGTDFTLKISRVEAEDLGIYYCFQGSHVPLTFGAGTKLELK | binds
100246_F7VH3_100247_F7VK2 (antibody, V domains shown, Mouse variable regions; cloned into pFUSE-CHIg-mG1 (murine IgG1 Fc), expressed in HEK293) VH: EVQLQESGPELVRPGASVKMSCKASGYTFTSYWMHWVKQRPGQGLEWIGMIDPYSSETSLNQKFKDKATLNVDKISNTAYMQLSSLTSEDSAVYFCARSRGNYAYDMDYWGQGTSVTVSS VL: DIVLTQSTAIMSASPGEKVTLTCSASSGVNSNYLYWYQQKPGSSPKLWIYSTSNLASGVPARFSGSGSGTSYSLTISSVEAEDAASYFCHQWSSYPPTFGSGTKLEIK | binds
